These entries and their values trace back to paper PMC4336329.

Hi there, I'd appreciate the recorded hERG current change (%, negative = inhibition) at 10uM for every entry that follows.
molecular target: human ether-à-go-go-related gene (hERG) potassium channel (human); assay: primary screen, population patch clamp on CHO cells stably expressing hERG; higher = less effect of the substance;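 further: peak tail current of the secondary pulse compared with the same well before compound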
Sequence (Q12809 whole entry, looked up): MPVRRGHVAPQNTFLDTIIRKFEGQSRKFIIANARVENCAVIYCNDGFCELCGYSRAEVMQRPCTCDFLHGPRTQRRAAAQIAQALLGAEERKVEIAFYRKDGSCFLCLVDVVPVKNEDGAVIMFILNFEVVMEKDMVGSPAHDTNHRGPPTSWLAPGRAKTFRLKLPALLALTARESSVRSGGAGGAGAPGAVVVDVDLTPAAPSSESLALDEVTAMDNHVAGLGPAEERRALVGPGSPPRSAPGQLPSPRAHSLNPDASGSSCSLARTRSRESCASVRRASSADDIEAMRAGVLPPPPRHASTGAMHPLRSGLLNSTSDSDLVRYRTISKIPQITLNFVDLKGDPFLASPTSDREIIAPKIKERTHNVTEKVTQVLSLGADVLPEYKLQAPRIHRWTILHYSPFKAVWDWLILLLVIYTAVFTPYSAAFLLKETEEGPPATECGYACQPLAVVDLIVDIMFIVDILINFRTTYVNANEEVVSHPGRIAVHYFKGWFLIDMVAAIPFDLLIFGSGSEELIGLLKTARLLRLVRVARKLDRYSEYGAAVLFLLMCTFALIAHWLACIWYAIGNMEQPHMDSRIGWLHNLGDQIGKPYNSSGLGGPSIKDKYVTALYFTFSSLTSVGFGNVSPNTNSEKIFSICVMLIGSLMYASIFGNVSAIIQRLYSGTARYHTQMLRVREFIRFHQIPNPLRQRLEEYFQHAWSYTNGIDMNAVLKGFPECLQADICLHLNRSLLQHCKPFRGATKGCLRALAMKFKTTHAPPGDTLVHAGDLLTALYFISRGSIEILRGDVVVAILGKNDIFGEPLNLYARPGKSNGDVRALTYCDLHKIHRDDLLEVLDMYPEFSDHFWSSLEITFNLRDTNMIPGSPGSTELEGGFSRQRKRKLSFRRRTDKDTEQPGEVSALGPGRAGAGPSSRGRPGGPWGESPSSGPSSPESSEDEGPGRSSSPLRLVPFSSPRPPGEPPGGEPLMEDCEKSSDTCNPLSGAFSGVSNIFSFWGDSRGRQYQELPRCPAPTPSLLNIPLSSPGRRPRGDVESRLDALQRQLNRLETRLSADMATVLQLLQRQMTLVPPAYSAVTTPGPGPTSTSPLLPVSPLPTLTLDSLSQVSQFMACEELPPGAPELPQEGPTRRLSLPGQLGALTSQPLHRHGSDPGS
Among all 310,000 compounds or so, about 14,000 (4.5%) showed an effect of 50% or more. Effects have a minus sign here. For the sample, strong results were picked, then their nearest neighbours and some compounds at random.
Write down the numeric answer in % and omit the unit.

Look up hERG current change (%, negative = inhibition) at 10uM: CCOC(=O)c1sc2ncn(C(CC)C(=O)OCC)c(=O)c2c1C (stereo not drawn)
1.12

Look up hERG current change (%, negative = inhibition) at 10uM: `Cc1ccc(C(=O)N2CCN(c3ccc(NC(=O)Cc4ccccc4)cc3)CC2)cc1`
-71.5

Look up hERG current change (%, negative = inhibition) at 10uM: `Cc1ccc(OCC(=O)Nc2ccc(N3CCN(C(=O)c4ccc(C)cc4)CC3)cc2)cc1`
9.99

Look up hERG current change (%, negative = inhibition) at 10uM: `COc1ccccc1NC(=O)COc1ccc(Br)cc1CNC1CCCC1`
-53.2

Look up hERG current change (%, negative = inhibition) at 10uM: `CCOc1cc(CNC2CCCC2)c(Cl)cc1OCC(=O)Nc1ccccc1`
-67.8

Look up hERG current change (%, negative = inhibition) at 10uM: `O=C(COc1ccc(Br)cc1CO)Nc1ccc(F)cc1`
-32.8

Look up hERG current change (%, negative = inhibition) at 10uM: `COc1ccccc1NC(=O)COc1ccc(Br)cc1CO`
-4.58

Look up hERG current change (%, negative = inhibition) at 10uM: `COc1cc(CNC2CCCC2)cc(Br)c1OCC(=O)Nc1ccccc1C`
-1.01

Look up hERG current change (%, negative = inhibition) at 10uM: `CCCCCC(=O)Nc1ccc(N2CCN(C(=O)c3ccccc3)CC2)cc1`
-62.8
